This collection of values is drawn from patent US20190241669A1.

# kon annotations
Molecular target: T1, cynomolgus monkey BCMA (cynomolgus monkey, UniProt A0A2K5UD97 1-53)
T1 construct: Soluble analyte in SPR; construct not described; also called cyBCMA; Cyno BCMA
T1 sequence (A0A2K5UD97 entry or part of it): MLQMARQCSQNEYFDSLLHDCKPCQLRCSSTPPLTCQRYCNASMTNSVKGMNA
Assay: SPR, IgG on chip, cyBCMA analyte
measured_endpoint: kon (M⁻¹ s⁻¹)

[
  {
    "binder": "C01_Rd4_6nM_C10 (antibody, V domains shown, IgG) VH: EVQLLESGGGLVQPGGSLRLSCAASGFTFSSYPMSWVRQAPGKGLEWVSAIGGSGGSLPYADSVKGRFTISRDNSKNTLYLQMNSLRAEDTAVYYCARYWPMDSWGQGTLVTVSS VL: EIVLTQSPGTLSLSPGERATLSCRASQSVSSVYLAWYQQKPGQAPRLLIYDASSRAPGIPDRFSGSGSGTDFTLTISRLEPEDFAVYYCQQYSTWPLTFGQGTKVEIK",
    "measured_endpoint": "kon",
    "units_symbol": "M⁻¹ s⁻¹",
    "recorded_measurement": "4.44e+06"
  },
  {
    "binder": "COMBO_Rd4_0.6nM_C21 (antibody, V domains shown, IgG) VH: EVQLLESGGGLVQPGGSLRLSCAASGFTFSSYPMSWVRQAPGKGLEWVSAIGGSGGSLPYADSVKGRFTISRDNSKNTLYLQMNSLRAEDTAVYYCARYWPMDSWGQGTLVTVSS VL: EIVLTQSPGTLSLSPGERATLSCRASQSVSSSYLAWYQQKPGQAPRLLMYDASIRATGIPDRFSGSGSGTDFTLTISRLEPEDFAVYYCQQYQSWPLTFGQGTKVEIK",
    "measured_endpoint": "kon",
    "units_symbol": "M⁻¹ s⁻¹",
    "recorded_measurement": "3.63e+06"
  }
]
